B1: Far upstream element-binding protein 3, residues 75 to 150; numbered along this chain, Q96I24 (parent)
chain: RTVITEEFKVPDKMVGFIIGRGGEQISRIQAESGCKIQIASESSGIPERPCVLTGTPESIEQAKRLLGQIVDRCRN

# Variants of: B1
# procedure details: abundance fitness (aPCA) (normalised: wild type 0, dead -1); higher = more abundant; growth selection in yeast, the domain comes from the species named
# particulars: Homo sapiens
Decision: abundance fitness compared against -0.07; not below it gives Met, below it gives Not met.

Is it the case that `G20N` has abundance fitness reaching or exceeding -0.07?
Not met

Is it the case that `E7V` has abundance fitness reaching or exceeding -0.07?
Met

Is it the case that `S33P` has abundance fitness reaching or exceeding -0.07?
Not met

Is it the case that `P50A` has abundance fitness reaching or exceeding -0.07?
Met

Is it the case that `G55I` has abundance fitness reaching or exceeding -0.07?
Not met

Is it the case that `I70Q` has abundance fitness reaching or exceeding -0.07?
Met

Is it the case that `L53V` has abundance fitness reaching or exceeding -0.07?
Not met

Is it the case that `Q25P` has abundance fitness reaching or exceeding -0.07?
Not met

Is it the case that `E24L` has abundance fitness reaching or exceeding -0.07?
Not met

Is it the case that `P47L` has abundance fitness reaching or exceeding -0.07?
Met

Is it the case that `G68F` has abundance fitness reaching or exceeding -0.07?
Not met

Is it the case that `R49G` has abundance fitness reaching or exceeding -0.07?
Not met

Is it the case that `S44T` has abundance fitness reaching or exceeding -0.07?
Met

Is it the case that `S27T` has abundance fitness reaching or exceeding -0.07?
Met

Is it the case that `E58W` has abundance fitness reaching or exceeding -0.07?
Not met

Is it the case that `T5Q` has abundance fitness reaching or exceeding -0.07?
Not met

Is it the case that `E32V` has abundance fitness reaching or exceeding -0.07?
Not met

Is it the case that `G16N` has abundance fitness reaching or exceeding -0.07?
Met

Is it the case that `V15S` has abundance fitness reaching or exceeding -0.07?
Not met

Is it the case that `I18A` has abundance fitness reaching or exceeding -0.07?
Not met

Is it the case that `R28V` has abundance fitness reaching or exceeding -0.07?
Not met

Is it the case that `I70V` has abundance fitness reaching or exceeding -0.07?
Met

Is it the case that `C51W` has abundance fitness reaching or exceeding -0.07?
Not met

Is it the case that `L53S` has abundance fitness reaching or exceeding -0.07?
Not met

Is it the case that `A31I` has abundance fitness reaching or exceeding -0.07?
Met

Is it the case that `A31F` has abundance fitness reaching or exceeding -0.07?
Not met

Is it the case that `E6C` has abundance fitness reaching or exceeding -0.07?
Met

Is it the case that `P47F` has abundance fitness reaching or exceeding -0.07?
Not met

Is it the case that `K9T` has abundance fitness reaching or exceeding -0.07?
Met

Is it the case that `F17E` has abundance fitness reaching or exceeding -0.07?
Met

Is it the case that `S33F` has abundance fitness reaching or exceeding -0.07?
Not met

Is it the case that `D12V` has abundance fitness reaching or exceeding -0.07?
Not met

Is it the case that `Q69C` has abundance fitness reaching or exceeding -0.07?
Not met

Is it the case that `A63I` has abundance fitness reaching or exceeding -0.07?
Not met

Is it the case that `I60H` has abundance fitness reaching or exceeding -0.07?
Not met

Is it the case that `S41C` has abundance fitness reaching or exceeding -0.07?
Met

Is it the case that `G34L` has abundance fitness reaching or exceeding -0.07?
Not met

Is it the case that `E24Q` has abundance fitness reaching or exceeding -0.07?
Met

Is it the case that `K9I` has abundance fitness reaching or exceeding -0.07?
Not met

Is it the case that `F17L` has abundance fitness reaching or exceeding -0.07?
Met

Is it the case that `E48Q` has abundance fitness reaching or exceeding -0.07?
Not met

Is it the case that `L67G` has abundance fitness reaching or exceeding -0.07?
Not met

Is it the case that `G23D` has abundance fitness reaching or exceeding -0.07?
Not met

Is it the case that `P11K` has abundance fitness reaching or exceeding -0.07?
Not met

Is it the case that `G55L` has abundance fitness reaching or exceeding -0.07?
Not met

Is it the case that `E48C` has abundance fitness reaching or exceeding -0.07?
Not met

Origin of measurements: the Human Domainome abundance scans (Beltran et al. 2025)
